Tested on: ATP;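 note: ATP exposure 15 min at 22 °C before imaging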
protocolNotes: switch fluorescence ratio, 500 uM ATP over buffer (Cy3 cluster intensity, sum of 5 cycles each) (fold (ratio)); higher = stronger signal-on switching upon ATP binding; sequences stand for … in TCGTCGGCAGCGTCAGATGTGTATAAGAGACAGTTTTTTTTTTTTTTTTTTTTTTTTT…TC
appliedConditions: aptamer strand: ATP DNA aptamer (quencher-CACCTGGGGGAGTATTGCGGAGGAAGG + anchor), 100 nM annealed; ATP concentration: 500 uM
Below: a set of entries, each annotated with reported switch fluorescence ratio.
Could you respond with only the numeric value?

In the examples that follow, each entry is paired with its recorded switch fluorescence ratio.
biosequence: CGGGTAAGT
targetDesc: ATP;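 note: ATP exposure 15 min at 22 °C before imaging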
switch fluorescence ratio: 1

biosequence: AGTAGTAAAC
targetDesc: ATP;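 note: ATP exposure 15 min at 22 °C before imaging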
switch fluorescence ratio: 1.02

biosequence: CCGGGGTTGG
targetDesc: ATP;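 note: ATP exposure 15 min at 22 °C before imaging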
switch fluorescence ratio: 1

Q: Tell me the measured switch fluorescence ratio of GTTGTGGGGA , please.
Ans: 1.02

Attribution: the supplement of paper PMC10126150
